system: Salmonella enterica subsp. enterica serovar Typhimurium ATCC 14028; assay: ≥ marks a high value that may be exact or a test limit, other limits are often not marked, values filed in µg/mL are converted to µM
assay metric: MIC (µM)
# unit: µM | format: bare number

1. CC(C)C[C@H](NC(=O)[C@H](Cc1c[nH]c2ccccc12)NC(=O)[C@H](CC(C)C)NC(=O)[C@@H](NC(=O)[C@H](CC(C)C)NC(=O)[C@H](CCCCN)NC(=O)[C@@H](N)CCCCN)[C@@H](C)O)C(=O)N[C@H](C(=O)N[C@@H](CC(C)C)C(=O)N[C@@H](CCCCN)C(=O)N[C@@H](CCCCN)C(N)=O)[C@@H](C)O :: 128

Request: Write MIC of CC[C@H](C)[C@H](NC(=O)CN)C(=O)N[C@@H](Cc1cnc[nH]1)C(=O)N[C@@H](CCCN=C(N)N)C(=O)N[C@H](C(=O)N[C@@H](CC(C)C)C(=O)N[C@@H](CCCCN)C(=O)N[C@@H](Cc1ccc(O)cc1)C(=O)NCC(=O)N[C@@H](CCCCN)C(=O)N1CCC[C@H]1C(=O)N[C@@H](CO)C(N)=O)[C@@H](C)CC ; system used: Salmonella enterica subsp. enterica serovar Typhimurium ATCC 14028
Response: 3

###

tested on: Pseudomonas aeruginosa KCTC 1637; assay: ≥ marks a high value that may be exact or a test limit, other limits are often not marked, values filed in µg/mL are converted to µM
assay metric: MIC (µM)
# unit: µM | format: bare number

Illustrative cases are given below, each with its answer.
1) CC[C@H](C)[C@H](NC(=O)CNC(=O)[C@@H](NC(=O)[C@H](CCCCN)NC(=O)[C@H](CCCCN)NC(=O)[C@H](Cc1ccccc1)NC(=O)[C@H](CC(C)C)NC(=O)[C@H](CCCCN)NC(=O)[C@H](Cc1c[nH]c2ccccc12)NC(=O)[C@@H](N)CCCCN)[C@@H](C)CC)C(=O)NCC(=O)N[C@@H](CCCCN)C(=O)N[C@@H](Cc1ccccc1)C(=O)N[C@@H](CC(C)C)C(N)=O :: 3.12
2) CC(C)C[C@H](NC(=O)[C@H](C)NC(=O)[C@H](Cc1c[nH]c2ccccc12)NC(=O)[C@H](CCCCN)NC(=O)[C@H](CC(N)=O)NC(=O)[C@H](Cc1c[nH]c2ccccc12)NC(=O)[C@H](CCCCN)NC(=O)[C@H](CCCCN)NC(=O)[C@H](CCCN=C(N)N)NC(=O)[C@@H](N)Cc1ccccc1)C(=O)N[C@@H](CO)C(=O)N[C@@H](CCCN=C(N)N)C(N)=O :: 16

The record that follows has no MIC shown yet.
Request: Annotate the compound CC[C@H](C)[C@H](NC(=O)[C@H](CC(C)C)NC(=O)[C@H](CS)NC(=O)[C@H](Cc1cnc[nH]1)NC(=O)[C@H](C)NC(=O)[C@H](C)N)C(=O)NCC(=O)N[C@@H](CCCN=C(N)N)C(=O)N[C@@H](CCCCN)C(N)=O [AAHCLIGRK] with its measured MIC.
Response: 15

###

Target or system Acinetobacter baumannii: recorded MIC listed per item.
# unit: µM | format: bare number

1. CC[C@H](C)[C@@H]1NC(=O)CNC(=O)[C@H](CCCN=C(N)N)NC(=O)[C@H](Cc2ccc(O)cc2)NC(=O)[C@@H]2CSSC[C@H](NC1=O)C(=O)N[C@@H](Cc1ccc(O)cc1)C(=O)N[C@@H](CCCN=C(N)N)C(=O)N[C@@H](CCCN=C(N)N)C(=O)N[C@H](C(=O)N[C@@H](CCCN=C(N)N)C(=O)O)CSSC[C@H](NC(=O)[C@H](Cc1c[nH]c3ccccc13)NC(=O)[C@@H](N)CCCCN)C(=O)N[C@@H](C)C(=O)N[C@@H](CCCN=C(N)N)C(=O)N[C@@H](C(C)C)C(=O)N2 :: 0.228

The record that follows has no MIC shown yet.
Request: Annotate the molecule CC[C@H](C)[C@@H]1NC(=O)CNC(=O)[C@H](CCCN=C(N)N)NC(=O)[C@H](Cc2ccc(O)cc2)NC(=O)[C@@H]2CSSC[C@H](NC1=O)C(=O)N[C@@H](Cc1ccc(O)cc1)C(=O)N[C@@H](CCCN=C(N)N)C(=O)N[C@@H](CCCN=C(N)N)C(=O)N[C@H](C(=O)N[C@@H](CCCN=C(N)N)C(=O)O)CSSC[C@H](NC(=O)[C@H](Cc1c[nH]c3ccccc13)NC(=O)[C@@H](N)CCCCN)C(=O)NCC(=O)N[C@@H](CCCN=C(N)N)C(=O)N[C@@H](C(C)C)C(=O)N2 with its measured MIC.
Response: 0.918

###

tested on: Staphylococcus epidermidis ATCC 12228
assay metric: MIC (µM)
# unit: µM | format: bare number

Request: Write MIC of CC(=O)N[C@@H](CCCCN)C(=O)N[C@@H](Cc1ccccc1)C(=O)N[C@@H](CC(C)C)C(=O)N[C@@H](CCCCN)C(=O)N[C@@H](CC(C)C)C(=O)N[C@@H](CCCCN)C(=O)N[C@@H](Cc1c[nH]c2ccccc12)C(=O)N[C@@H](CC(C)C)C(=O)N[C@@H](CCCCN)C(=O)N[C@@H](CO)C(=O)N[C@@H](Cc1c[nH]c2ccccc12)C(=O)N[C@@H](CCCCN)C(=O)N[C@@H](CC(N)=O)C(=O)N[C@@H](Cc1ccccc1)C(=O)N[C@@H](CCCCN)C(N)=O ; system used: Staphylococcus epidermidis ATCC 12228
Response: 12.5

###

tested on: Staphylococcus aureus ATCC 43300
Below, each entry is listed with its recorded MIC.
# unit: µM | format: bare number

1. CC[C@H](C)[C@@H]1NC(=O)CNC(=O)[C@H](CCCN=C(N)N)NC(=O)[C@H](Cc2ccc(O)cc2)NC(=O)[C@@H]2CSSC[C@H](NC1=O)C(=O)N[C@@H](Cc1ccc(O)cc1)C(=O)N[C@@H](CCCN=C(N)N)C(=O)N[C@@H](CCCN=C(N)N)C(=O)N[C@H](C(=O)N[C@@H](CCCN=C(N)N)C(=O)O)CSSC[C@H](NC(=O)[C@H](Cc1c[nH]c3ccccc13)NC(=O)[C@@H](N)CCCCN)C(=O)N[C@@H](C)C(=O)N[C@@H](CCCN=C(N)N)C(=O)N[C@@H](C(C)C)C(=O)N2 [KWCARVCYRGICYRRCR] :: 1.82

Request: Write MIC of CC[C@H](C)[C@@H]1NC(=O)CNC(=O)[C@H](CCCN=C(N)N)NC(=O)[C@H](Cc2ccc(O)cc2)NC(=O)[C@@H]2CSSC[C@H](NC1=O)C(=O)N[C@@H](Cc1ccc(O)cc1)C(=O)N[C@@H](CCCN=C(N)N)C(=O)N[C@@H](CCCN=C(N)N)C(=O)N[C@H](C(=O)N[C@@H](CCCN=C(N)N)C(=O)O)CSSC[C@H](NC(=O)[C@H](C)NC(=O)[C@@H](N)CCCCN)C(=O)N[C@@H](Cc1ccccc1)C(=O)N[C@@H](CCCN=C(N)N)C(=O)N[C@@H](C(C)C)C(=O)N2 [KACFRVCYRGICYRRCR] ; system used: Staphylococcus aureus ATCC 43300
Response: 3.71

###

Target or system Candida albicans ATCC 10231: recorded MIC listed per item.
# unit: µM | format: bare number

Illustrative cases are given below, each with its answer.
1. CC[C@H](C)[C@H](NC(=O)[C@H](Cc1cnc[nH]1)NC(=O)[C@H](CCC(N)=O)NC(=O)[C@H](CC(C)C)NC(=O)[C@@H](N)Cc1ccccc1)C(=O)N[C@H](C(=O)NCC(=O)N[C@@H](C)C(=O)N[C@@H](CC(C)C)C(=O)NCC(=O)N[C@@H](CCCCN)C(=O)N[C@@H](CC(C)C)C(=O)N[C@@H](Cc1ccccc1)C(N)=O)[C@@H](C)CC [FLQHIIGALGKLF] :: 50
2. CC[C@H](C)[C@H](NC(=O)[C@H](CCCCN)NC(=O)[C@H](CCCCN)NC(=O)[C@@H](NC(=O)[C@@H](NC(=O)[C@H](CC(=O)O)NC(=O)[C@H](Cc1ccccc1)NC(=O)[C@H](CC(C)C)NC(=O)[C@H](C)N)[C@@H](C)CC)[C@@H](C)CC)C(=O)N[C@@H](C)C(=O)N[C@@H](CCC(=O)O)C(=O)N[C@@H](CO)C(=O)N[C@@H](Cc1ccccc1)C(N)=O [ALFDIIKKIAESF] :: 85.6

The record that follows has no MIC shown yet.
Request: Write MIC of CSCC[C@H](NC(=O)[C@H](CCCN=C(N)N)NC(=O)[C@H](CO)NC(=O)CNC(=O)[C@H](CCCCN)NC(=O)[C@@H](N)CCCN=C(N)N)C(=O)NCC(=O)N[C@@H](CCCCN)C(=O)N[C@@H](CCCCN)C(=O)N[C@@H](CS)C(=O)N[C@@H](CCC(=O)O)C(=O)N[C@@H](CS)C(=O)N1CCC[C@H]1C(=O)O [RKGSRMGKKCECP] ; system used: Candida albicans ATCC 10231
Response: 13.5

Recorded values, source DBAASP.
